# assayed-system: SARS-CoV FP peptide (SARS-CoV), P59594
# Sequence (P59594 794-813 limits assumed): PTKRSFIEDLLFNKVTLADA
# assay-explanation: peptide ELISA
endpoint-name: EC50

binder	recorded-measurement
fp.003 (antibody, V domains shown) VH: VQLVESGGGVVQPGTSLRLSCTASGFSFSNYAMHWVRQAPGKGLEWVAIISFDTRNKEFADSVKGRFSISRDNSKNSLNLQMNSLRPEDTGVYYCARDLFLSDYDSRGYEPSRGGFDYWGQGTLVTVSS VL: EIVMTQSPATLSVSPGERATLSCRASQSVSSSLAWYQQKLGQPPRLLIYGASTRATGIPARFSGSGSGTEFTLTISSLKSEDSAVYYCQQYNDWPLLSFGGGTKVEIK	0.0285 µg/mL
fp.011 (antibody, V domains shown) VH: EVQLLESGGGLVQPGGSLRLSCAGSGFTFNNYAMTWVRQAPGRGLEWVSAISGSGGSSHYADSVKGRFTITRDNSKNTLYLQMNSLRAEDTAVYYCAFIDYYSGWSYYYGLDVWGQGTTVTVSS VL: EIVLTQSPATLSLSPGERATLSCRASQGVRTYVAWYQQKPGQAPRLLIYDASNRATGIPARFSGSGSGTDFTLTISSLEPEDFAVYYCQQRYNWPLCSFGQGTKLEIK	0.023 µg/mL
